Data provenance: patent US8129396B2

List of pIC50 tested on Aurora B kinase (Homo sapiens, UniProt Q96GD4).
Sequence (Q96GD4 whole entry): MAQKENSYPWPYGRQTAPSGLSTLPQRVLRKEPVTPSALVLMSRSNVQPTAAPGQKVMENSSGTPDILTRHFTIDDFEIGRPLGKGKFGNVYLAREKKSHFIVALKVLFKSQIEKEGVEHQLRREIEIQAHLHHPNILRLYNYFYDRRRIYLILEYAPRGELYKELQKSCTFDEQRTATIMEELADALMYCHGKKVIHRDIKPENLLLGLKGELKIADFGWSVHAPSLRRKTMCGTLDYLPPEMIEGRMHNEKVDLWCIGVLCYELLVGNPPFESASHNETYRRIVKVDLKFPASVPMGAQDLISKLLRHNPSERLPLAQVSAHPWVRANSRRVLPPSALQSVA
Note on pIC50: it is the negative log10 of concentration, concentration in mol/L.

See these solved cases before continuing.
- CN(C)CC(=O)Nc1ccc2c(c1)N/C(=C(/C(N)=O)c1nccc(C(F)(F)F)n1)N2 [Compound 73A]: 8.30
- NC(=O)/C(=C1\Nc2ccc(NC(=O)[C@@H]3CCCN3)cc2N1)c1nccc(C(F)(F)F)n1 [Compound 80A]: 8.40
- CN1CCCCC1C(=O)Nc1ccc2c(c1)N/C(=C(/C(N)=O)c1nccc(C(F)(F)F)n1)N2 (stereo not shown) [Compound 82A]: 8.15

API: the following record is the query input.
Ask: Specify the recorded pIC50 for CCN(CCCN1CCOCC1)C(=O)c1ccc2c(c1)N/C(=C(/C(N)=O)c1nccc(C(F)(F)F)n1)N2 [Compound 41A] , system: Aurora B kinase (Homo sapiens, UniProt Q96GD4).
Reply: 8.40

###

tested on: HCT116 (human colon carcinoma) cells; assay: HCT116 cytotoxicity assay (CellTiter-Glo); type: cell-based; conditions: HCT-116, 72 h, cytotoxicity, three days culture, read-out: HCT116 IC50
Measured log10 of IC50 values are reported for all entries that follow.
Hi team, quick reminder: these entries are log10 of IC50 (µM).

• NC(=O)/C(=C1\Nc2ccc(C(=O)Nc3ccncc3)cc2N1)c1nccc(C(F)(F)F)n1 [Compound 44A] = -0.70
• NC(=O)/C(=C1\Nc2ccc(CO)cc2N1)c1nccc(C(F)(F)F)n1 [Compound 35A] = -0.70

Ask: Look up log10 of IC50 of Cn1ccnc1-c1ccc2c(c1)S/C(=C(/C(N)=O)c1nccc(C(F)(F)F)n1)N2 [Compound 106A] and report it.
Reply: 0.30

Ask: // fetch log10 of IC50 given entry COc1cc(C(F)(F)F)nc(/C(C(N)=O)=C2/Nc3ccccc3S2)n1 [Compound 6A]
Reply: 0.60

Ask: Look up and report measured log10 of IC50 for this entry: NC(=O)/C(=C1\Nc2ccc(C(=O)N3CCC(N)CC3)cc2N1)c1nccc(C(F)(F)F)n1 [Compound 66A]
Reply: -0.70

Ask: Fill in reported log10 of IC50 for this entry: NC(=O)/C(=C1\Nc2ccc(I)cc2S1)c1nccc(C(F)(F)F)n1 [Compound 25A]
Reply: 1.00

Ask: Read the entry NC(=O)C(=C1Nc2ccccc2N1)c1ncc(C(=O)NCCN2CCOCC2)c(C(F)(F)F)n1 [Compound 135A] and write its reported log10 of IC50.
Reply: 0.60

Ask: Identify measured log10 of IC50 corresponding to COC(=O)c1cc(C)nc(/C(C(N)=O)=C2/Nc3ccccc3S2)n1 [Compound 23A]
Reply: 1.70

###

Target: Aurora A kinase (Homo sapiens, UniProt O14965)
Construct: purchased Upstate Biotech
Sequence (O14965 1-403): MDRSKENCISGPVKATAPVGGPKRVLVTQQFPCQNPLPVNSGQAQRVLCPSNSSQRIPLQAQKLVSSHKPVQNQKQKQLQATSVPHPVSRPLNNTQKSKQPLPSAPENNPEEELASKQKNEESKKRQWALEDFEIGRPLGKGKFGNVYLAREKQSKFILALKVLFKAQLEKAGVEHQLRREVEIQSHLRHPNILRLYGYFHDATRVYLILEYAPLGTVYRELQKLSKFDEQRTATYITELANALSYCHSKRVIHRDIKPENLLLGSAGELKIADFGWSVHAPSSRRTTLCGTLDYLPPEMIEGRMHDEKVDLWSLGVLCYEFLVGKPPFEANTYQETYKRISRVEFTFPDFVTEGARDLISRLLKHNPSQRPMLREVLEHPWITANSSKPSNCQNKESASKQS
Assay: Aurora A kinase assay (IMAP fluorescence polarization)
Assay type: biochemical
Conditions: 10 μM ATP; rounded to 1 significant figure; read-out: Aur-A IC50
Procedure: […] Aurora A kinase assay: the test compounds were diluted in dimethylsulfoxide (DMSO, eight concentrations with serial 3-fold dilutions) and incubated (final DMSO concentration 2.5%) with Aurora A kinase at room temperature for 5 min in kinase reaction buffer with 1 mM dithiothreitol (IMAP FP Screening Express). […] After 30 min of room temperature incubation with shaking, the fluorescence polarization was measured on a LJL plate reader. […]
// reported pIC50 for each item listed
Please express pIC50 as -log10 of the molar concentration.

// solved cases for pIC50 follow
• COc1cc(C(F)(F)F)nc(/C(C(N)=O)=C2/Nc3ccccc3S2)n1 = 7.70
• CN1CCCC[C@H]1C(=O)Nc1ccc2c(c1)N/C(=C(/C(N)=O)c1nccc(C(F)(F)F)n1)N2 [Compound 142A] = 8.70

Ask: Check Aurora A kinase (Homo sapiens, UniProt O14965) data and give pIC50 for NC(=O)C(=C1Nc2ccc(N)cc2S1)c1nccc(C(F)(F)F)n1 (single isomer, unassigned) [Compound 32A] .
Reply: 8.00

Ask: Report value only: pIC50, Aurora A kinase (Homo sapiens, UniProt O14965), NC(=O)/C(=C1\Nc2ccc(NC(=O)[C@@H]3CCCN3)cc2N1)c1nccc(C(F)(F)F)n1 [Compound 80A]
Reply: 8.00

Ask: Fill in: pIC50 on Aurora A kinase (Homo sapiens, UniProt O14965), entry NC(=O)/C(=C1\Nc2ccc(C(=O)N3CCNCC3)cc2N1)c1nccc(C(F)(F)F)n1 [Compound 60A]
Reply: 8.00

Ask: Report the value of pIC50 obtained on Aurora A kinase (Homo sapiens, UniProt O14965) for NC(=O)/C(=C1\Nc2ccc(C(=O)O)cc2S1)c1nccc(C(F)(F)F)n1 [Compound 27A] .
Reply: 8.52

Ask: Specify pIC50 for NC(=O)/C(=C1\Nc2ccc(-c3cccnc3)cc2N1)c1nccc(C(F)(F)F)n1 [Compound 107A] , system Aurora A kinase (Homo sapiens, UniProt O14965).
Reply: 8.10

Ask: Give reported pIC50 for NC(=O)/C(=C1\Nc2ccccc2S1)c1ncc(C(=O)NCCCN2CCOCC2)c(C(F)(F)F)n1 [Compound 131A] (Aurora A kinase (Homo sapiens, UniProt O14965))
Reply: 7.05

Ask: // output pIC50; input NC(=O)/C(=C1\Nc2ccc(NC(=O)C3(N)CC3)cc2N1)c1nccc(C(F)(F)F)n1 [Compound 34A] ; system Aurora A kinase (Homo sapiens, UniProt O14965)
Reply: 8.30

Ask: Give pIC50; test system Aurora A kinase (Homo sapiens, UniProt O14965); molecule CCc1cnc(/C(C(N)=O)=C2/Nc3ccccc3S2)nc1 [Compound 21A]
Reply: 6.70

Ask: # return pIC50 of COC(=O)c1cnc(/C(C(N)=O)=C2/Nc3ccccc3S2)nc1C(F)(F)F (system: Aurora A kinase (Homo sapiens, UniProt O14965))
Reply: 7.70

Ask: Report measured pIC50 on Aurora A kinase (Homo sapiens, UniProt O14965); entry: NC(=O)C(=C1Nc2cc(F)c(F)cc2N1)c1nccc(C(F)(F)F)n1 [Compound 38A]
Reply: 7.40

Ask: Identify measured pIC50 obtained with Aurora A kinase (Homo sapiens, UniProt O14965) for NC(=O)/C(=C1\Nc2ccc(C(=O)NCCCn3ccnc3)cc2S1)c1nccc(C(F)(F)F)n1 [Compound 46A] .
Reply: 8.22

###

Measured pIC50 values are reported for all entries that follow.
System: HCT116 (human colon carcinoma) cells
Test: HCT116 cytotoxicity assay (CellTiter-Glo)
Type: cell-based
Details: HCT-116, 72 h, cytotoxicity, three days culture, read-out: HCT116 IC50
Protocol: […] Log-phase cells were trypsinized, collected by centrifugation, and resuspended in a small volume of fresh medium, and the density of viable cells was determined following Trypan Blue staining. […] After incubation for 15 minutes at room temperature, the plate was read with a luminometer.
Quick note: pIC50 means taking -log10 of the concentration in moles per liter.

Below: 3 molecules and their reported pIC50.
- NC(=O)/C(=C1\Nc2ccc(C(=O)O)cc2N1)c1nccc(C(F)(F)F)n1 [Compound 28A]: 5.40
- NC(=O)/C(=C1\Nc2ccc(Oc3cccnc3)cc2S1)c1nccc(C(F)(F)F)n1 [Compound 118A]: 5.70
- NC(=O)/C(=C1\Nc2ccc(NC(=O)[C@@H]3CCCN3)cc2N1)c1nccc(C(F)(F)F)n1 [Compound 80A]: 6.30

Ask: Give pIC50 for the following molecule: NC(=O)/C(=C1\Nc2ccc(Cn3ccnc3)cc2N1)c1nccc(C(F)(F)F)n1 [Compound 90A]
Reply: 6.70

Ask: Report pIC50, nothing else, for this molecule: NC(=O)/C(=C1\Nc2cc(F)c(Cl)cc2N1)c1nccc(C(F)(F)F)n1 [Compound 37A]
Reply: 5.70

Ask: Read off the recorded pIC50 for CN1CCC[C@H]1C(=O)Nc1ccc2c(c1)S/C(=C(/C(N)=O)c1nccc(C(F)(F)F)n1)N2 [Compound 78A]
Reply: 5.70

Ask: Name the recorded pIC50 of the item NC(=O)/C(=C1\Nc2ccc(S(=O)(=O)NCCCN3CCOCC3)cc2S1)c1nccc(C(F)(F)F)n1 [Compound 127A] in your answer.
Reply: 6.22

Ask: Give pIC50 for the following molecule: CN(C)CCCNC(=O)c1ccc2c(c1)N/C(=C(/C(N)=O)c1nccc(C(F)(F)F)n1)N2 [Compound 62A]
Reply: 7.22

Ask: Give the measured pIC50 for CCN(CCCn1ccnc1)C(=O)c1ccc2c(c1)N/C(=C(/C(N)=O)c1nccc(C(F)(F)F)n1)N2 [Compound 48A]
Reply: 6.22

Ask: Determine from records and report pIC50 for NC(=O)C(=C1Nc2ccccc2N1)c1ncc(C(=O)NCCCN2CCOCC2)c(C(F)(F)F)n1 [Compound 132A]
Reply: 6.00

Ask: Supply measured pIC50 of CN(C)CC(=O)Nc1ccc2c(c1)N/C(=C(/C(N)=O)c1nccc(C(F)(F)F)n1)N2 [Compound 73A] in your reply.
Reply: 6.70

Ask: Tell us which pIC50 value is on record for CN1CCN(C(=O)c2cnc(C(C(N)=O)=C3Nc4ccccc4S3)nc2C(F)(F)F)CC1 (single isomer, unassigned) [Compound 130A]
Reply: 5.70

Ask: Look up pIC50 of CN1CCCC[C@@H]1C(=O)Nc1ccc2c(c1)N/C(=C(/C(N)=O)c1nccc(C(F)(F)F)n1)N2 [Compound 143A] and report it.
Reply: 6.52
